Growth inhibition rate (%) Soybean listing for selected compounds.
System: soybean (Glycine max Merr.)
Assay: Test Example 1: foliar treatment, growth inhibition rate on 14th day
Assay type: in vivo
Conditions: active ingredient amount 31 g/ha, 14th day after application
Numbers only; they are read as %.

[[record]]
compound = "CCn1ncc(O)c(-c2cc(Oc3ncc(C(F)(F)F)cc3Cl)ccc2C)c1=O"
quantity = "Growth inhibition rate (%) Soybean"
value = 20

[[record]]
compound = "Cc1ccc(Oc2cnc3cc(Cl)ccc3n2)cc1-c1c(OCc2ccccc2)c(C)nn(C)c1=O"
quantity = "Growth inhibition rate (%) Soybean"
value = 0

[[record]]
compound = "Cn1ncc(O)c(-c2cc(Oc3ncc(C(F)(F)F)cc3Cl)ccc2OC(F)(F)F)c1=O"
quantity = "Growth inhibition rate (%) Soybean"
value = 0

[[record]]
compound = "CCc1ccc(Sc2ncc(C(F)(F)F)cc2Cl)cc1-c1c(OC(C)=O)c(C)nn(C)c1=O"
quantity = "Growth inhibition rate (%) Soybean"
value = 0


Here's the next entry for you.
For reference, reported Growth inhibition rate (%) Soybean for CCc1nn(C)c(=O)c(-c2cc(Oc3ncc(C(F)(F)F)cc3Cl)ccc2C)c1OC(C)OC(=O)OC (stereo not drawn) stands at 15
